Source listed as paper PMC6222614.

Test system: HIV-1 IIIB
experimentSummary: Anti-HIV-1 activity: protection of MT-4 cells from virus-induced cytopathogenicity (MTT)
Assay type: cell-based, Human Immunodeficiency Virus type-1
experimentalParameters: 50% protection of MT-4 cells from HIV-1 induced cytopathogenicity, MTT, 4-day incubation; read-out: HIV-1IIIB EC50
pEC50: −log10 of the molar value.
Overview of recorded pEC50 for various molecules

Report pEC50 for O=[N+]([O-])c1cc(NC(=S)Nc2cccc(C(F)(F)F)c2)ccc1Cl please.
< 5.10

Report pEC50 for O=[N+]([O-])c1cc(NC(=S)Nc2ccc(I)cc2)ccc1Cl please.
< 5.11

Report pEC50 for N#Cc1ccc(NC(=S)Nc2ccc(Cl)c([N+](=O)[O-])c2)cc1 please.
< 5.09

Report pEC50 for O=[N+]([O-])c1cc(NC(=S)Nc2ccc(C(F)(F)F)cc2)ccc1Cl please.
< 5.15

Report pEC50 for O=[N+]([O-])c1cc(NC(=S)Nc2cccc(Br)c2)ccc1Cl please.
< 5.10

Report pEC50 for O=[N+]([O-])c1ccc(NC(=S)Nc2ccc(Cl)c([N+](=O)[O-])c2)cc1 please.
< 5.15

Report pEC50 for O=[N+]([O-])c1cc(NC(=S)Nc2ccc(Cl)cc2Cl)ccc1Cl please.
< 5.10

Report pEC50 for O=[N+]([O-])c1cc(NC(=S)NCc2ccccc2)ccc1Cl please.
< 4.44

Report pEC50 for O=[N+]([O-])c1cc(NC(=S)Nc2cccc(F)c2)ccc1Cl please.
< 5.05

Report pEC50 for CC(NC(=S)Nc1ccc(Cl)c([N+](=O)[O-])c1)c1ccccc1 (centres unmarked) please.
< 4.78

Report pEC50 for O=[N+]([O-])c1cc(NC(=S)Nc2ccc(Cl)c(Cl)c2)ccc1Cl please.
< 5.10

###

Tested on: M. luteus ATCC 10240
experimentSummary: MIC, twofold serial microdilution
Type: cell-based
experimentalParameters: Micrococcus luteus, ATCC10240; standard strain, 18 h, 35 °C
Rule: MIC below 20 µg/mL gives label 1. Equal to or above 20 µg/mL gives label 0.

Before answering, review these 2 worked examples.
>  <compound>
C=C(C)CNC(=S)Nc1ccc(Cl)c([N+](=O)[O-])c1 [Compound 27]

>  <group>
label 0

$$$$
>  <compound>
C=CCNC(=S)Nc1ccc(Cl)c([N+](=O)[O-])c1 [Compound 28]

>  <group>
label 0

$$$$

Determine whether this compound shows MIC lower than 20 µg/mL (ties excluded): CCCCc1ccc(NC(=S)Nc2ccc(Cl)c([N+](=O)[O-])c2)c(C)c1 [Compound 22]
label 1

Determine whether this compound shows MIC lower than 20 µg/mL (ties excluded): O=C(O)c1cn(C2CC2)c2cc(N3CCNCC3)c(F)cc2c1=O [Ciprofloxacin, reference compound]
label 1

Determine whether this compound shows MIC lower than 20 µg/mL (ties excluded): O=[N+]([O-])c1cc(NC(=S)Nc2ccccc2)ccc1Cl [Compound 23]
label 1

Determine whether this compound shows MIC lower than 20 µg/mL (ties excluded): O=[N+]([O-])c1cc(NC(=S)NC2CC3CCC2C3)ccc1Cl (stereo not drawn) [Compound 24]
label 1

Determine whether this compound shows MIC lower than 20 µg/mL (ties excluded): O=[N+]([O-])c1cc(NC(=S)NCc2ccco2)ccc1Cl [Compound 30]
label 1

Determine whether this compound shows MIC lower than 20 µg/mL (ties excluded): CSCCCNC(=S)Nc1ccc(Cl)c([N+](=O)[O-])c1 [Compound 29]
label 0

Determine whether this compound shows MIC lower than 20 µg/mL (ties excluded): Cc1ccc(NC(=S)Nc2ccc(Cl)c([N+](=O)[O-])c2)cc1 [Compound 20]
label 1

###

Overview of recorded melting point for various compounds

>  <compound>
O=[N+]([O-])c1cc(NC(=S)NC2CC3CCC2C3)ccc1Cl (centres unmarked)

>  <reportedMetric>
melting point

>  <valueMeasured>
94 to 96 °C

$$$$
>  <compound>
CSCCCNC(=S)Nc1ccc(Cl)c([N+](=O)[O-])c1

>  <reportedMetric>
melting point

>  <valueMeasured>
102 to 103.5 °C

$$$$
>  <compound>
C=CCNC(=S)Nc1ccc(Cl)c([N+](=O)[O-])c1

>  <reportedMetric>
melting point

>  <valueMeasured>
112 to 114 °C

$$$$
>  <compound>
O=[N+]([O-])c1cc(NC(=S)Nc2ccccc2)ccc1Cl

>  <reportedMetric>
melting point

>  <valueMeasured>
163 to 165 °C

$$$$

Report melting point for CCCCc1ccc(NC(=S)Nc2ccc(Cl)c([N+](=O)[O-])c2)c(C)c1 please.
67 to 69 °C

###

Test system: S. epidermidis MRSE 409/11
experimentSummary: MIC, hospital methicillin-resistant strain
Format: cell-based
experimentalParameters: Staphylococcus epidermidis
reportedMetric: MIC (µg/mL)
# value in µg/mL; strip the unit string

As a guide, the following entries are already answered.
>  <compound>
C=C(C)CNC(=S)Nc1ccc(Cl)c([N+](=O)[O-])c1

>  <MIC, µg/mL>
32

$$$$
>  <compound>
O=C(O)c1cn(C2CC2)c2cc(N3CCNCC3)c(F)cc2c1=O [Ciprofloxacin, reference compound]

>  <MIC, µg/mL>
2

$$$$
>  <compound>
CSCCCNC(=S)Nc1ccc(Cl)c([N+](=O)[O-])c1

>  <MIC, µg/mL>
32

$$$$
>  <compound>
CCCCc1ccc(NC(=S)Nc2ccc(Cl)c([N+](=O)[O-])c2)c(C)c1

>  <MIC, µg/mL>
4

$$$$
>  <compound>
O=[N+]([O-])c1cc(NC(=S)Nc2ccccc2)ccc1Cl

>  <MIC, µg/mL>
16

$$$$

Report MIC for O=[N+]([O-])c1cc(NC(=S)NCc2ccco2)ccc1Cl please.
32

###

Overview of recorded CC50 for various compounds
System: SK-MEL-28
experimentSummary: Antiproliferative assay (MTT)
Assay type: cell-based, human
experimentalParameters: skin melanoma, concentration reducing cell proliferation by 50%, 96 h
# value in µM; strip the unit string

As a guide, the following entries are already answered.
>  <compound>
Cc1ccc(NC(=S)Nc2ccc(Cl)c([N+](=O)[O-])c2)cc1Cl

>  <unitsText>
µM

>  <CC50>
6

$$$$
>  <compound>
O=[N+]([O-])c1cc(NC(=S)Nc2ccc(I)cc2)ccc1Cl

>  <unitsText>
µM

>  <CC50>
6

$$$$
>  <compound>
O=[N+]([O-])c1cc(NC(=S)Nc2ccccc2Cl)ccc1Cl

>  <unitsText>
µM

>  <CC50>
8.7

$$$$
>  <compound>
O=[N+]([O-])c1cc(NC(=S)Nc2ccc(F)cc2)ccc1Cl

>  <unitsText>
µM

>  <CC50>
20

$$$$
>  <compound>
O=[N+]([O-])c1cc(NC(=S)Nc2ccc(Cl)c(Cl)c2)ccc1Cl

>  <unitsText>
µM

>  <CC50>
8.5

$$$$

Now for a further compound.
Give SK-MEL-28 CC50 for CC[C@@]1(O)C(=O)OCc2c1cc1n(c2=O)Cc2cc3ccccc3nc2-1 [Camptotecin, reference compound]
0.07

###

experimentSummary: Cytotoxicity against mock-infected MT-4 cells (MTT)
Type: cell-based, human
experimentalParameters: human, concentration reducing viability of mock-infected MT-4 cells by 50%
Please use the following CC50 at 96 h ranges when assigning a class: c1: < 20 µM; c2: ≥ 20 µM and < 30 µM; c3: ≥ 30 µM

Before answering, review these 8 worked examples.
>  <molecule>
COc1ccc(NC(=S)Nc2ccc(Cl)c([N+](=O)[O-])c2)cc1

>  <group>
c3

$$$$
>  <molecule>
O=[N+]([O-])c1cc(NC(=S)NC2CC3CCC2C3)ccc1Cl (stereo not shown)

>  <group>
c1

$$$$
>  <molecule>
C=CCNC(=S)Nc1ccc(Cl)c([N+](=O)[O-])c1

>  <group>
c3

$$$$
>  <molecule>
CSCCCNC(=S)Nc1ccc(Cl)c([N+](=O)[O-])c1

>  <group>
c3

$$$$
>  <molecule>
O=[N+]([O-])c1cc(NC(=S)NCc2ccco2)ccc1Cl

>  <group>
c2

$$$$
>  <molecule>
C=C(C)CNC(=S)Nc1ccc(Cl)c([N+](=O)[O-])c1

>  <group>
c1

$$$$
>  <molecule>
CCCCc1ccc(NC(=S)Nc2ccc(Cl)c([N+](=O)[O-])c2)c(C)c1

>  <group>
c1

$$$$
>  <molecule>
Cc1ccc(NC(=S)Nc2ccc(Cl)c([N+](=O)[O-])c2)cc1

>  <group>
c1

$$$$

Sort into band: O=[N+]([O-])c1cc(NC(=S)Nc2ccccc2)ccc1Cl
c2

Sort into band: O=C1Nc2ccc(Cl)cc2[C@@](C#CC2CC2)(C(F)(F)F)O1 [Efavirenz, reference compound]
c3

###

Test system: SK-MEL-28
experimentSummary: Antiproliferative assay (MTT)
Type: cell-based, human
experimentalParameters: skin melanoma, concentration reducing cell proliferation by 50%, 96 h
Overview of recorded CC50 for various molecules

>  <sampleSmiles>
O=[N+]([O-])c1cc(NC(=S)Nc2ccccc2Br)ccc1Cl

>  <targetOrSystem>
SK-MEL-28

>  <CC50>
15 µM

$$$$
>  <sampleSmiles>
O=[N+]([O-])c1cc(NC(=S)Nc2ccc(Br)cc2)ccc1Cl

>  <targetOrSystem>
SK-MEL-28

>  <CC50>
6 µM

$$$$
>  <sampleSmiles>
N#Cc1ccc(NC(=S)Nc2ccc(Cl)c([N+](=O)[O-])c2)cc1

>  <targetOrSystem>
SK-MEL-28

>  <CC50>
9 µM

$$$$
>  <sampleSmiles>
O=[N+]([O-])c1cc(NC(=S)Nc2ccc(F)c(Cl)c2)ccc1Cl

>  <targetOrSystem>
SK-MEL-28

>  <CC50>
6.6 µM

$$$$

Report CC50 for Cc1ccc(Cl)cc1NC(=S)Nc1ccc(Cl)c([N+](=O)[O-])c1 please.
9 µM
